Multiple publications report Ki for Serine/threonine-protein kinase mTOR (Homo sapiens, UniProt P42345); what follows is a combined list.
MEASURED ATTRIBUTE: Ki (nM)

[[record]]
compound_structure = "CCNC(=O)Nc1ccc(-c2nc3c(c(N4C[C@H]5CC[C@@H](C4)O5)n2)CS(=O)(=O)CC3)cc1"
unit_symbol = "nM"
obs_value = 5

[[record]]
compound_structure = "Cc1nc(N)nc2c1cc(-c1cn[nH]c1)c(=O)n2N1CCCC1"
unit_symbol = "nM"
obs_value = 10.6

[[record]]
compound_structure = "Cc1nc(N)nc2c1nc(-c1cnn[nH]1)c(=O)n2C(C)C"
unit_symbol = "nM"
obs_value = 113

[[record]]
compound_structure = "Cc1nc(N)c2cccc(C(=O)Nc3ccc(N(C)C)nc3)c2n1"
unit_symbol = "nM"
obs_value = 1000

[[record]]
compound_structure = "Cc1nc(N)c2ccc(C)c(C(=O)Nc3ccn[nH]3)c2n1"
unit_symbol = "nM"
obs_value = 984

[[record]]
compound_structure = "CNc1nc(C)c2cc(-c3cccc(CO)c3)c(=O)n(C3CCCC3)c2n1"
unit_symbol = "nM"
obs_value = 840

[[record]]
compound_structure = "COc1ccc(-c2cc3c(C)nc(N)nc3n(C3CCCC3)c2=O)cn1"
unit_symbol = "nM"
obs_value = 142

[[record]]
compound_structure = "Cc1ccc(-c2nc3c(C)nc(N)nc3n(C3CCOCC3)c2=O)cn1"
unit_symbol = "nM"
obs_value = 5

[[record]]
compound_structure = "COc1ccc(-c2nc3c(C)nc(N)nc3n([C@H]3CC[C@H](O)CC3)c2=O)cn1"
unit_symbol = "nM"
obs_value = 6.8

[[record]]
compound_structure = "Cc1cc(C(=O)Nc2ccc(C)nc2)c2nc(C)nc(N)c2c1"
unit_symbol = "nM"
obs_value = 66


[A] Nc1cc(C(F)(F)F)c(-c2cc(N3C4CCC3COC4)nc(N3C4CCC3COC4)n2)cn1
[B] Cc1c(CN2CCN(C(=O)[C@H](C)N)CC2)sc2c(N3CCOCC3)nc(-c3cnc(N)nc3)nc12
When the recorded Ki values are compared, which is smaller: that of A or that of B ? Please identify the chosen entry by its label.
B
(B: 6.3 nM, A: 30 nM)

[I] C[C@H]1COC[C@H](C)N1c1nc(-c2cnc(N)cc2C(F)F)nc(N2[C@@H](C)COC[C@@H]2C)n1
[II] CC1(C)CN(c2nc(-c3cnc(N)cc3C(F)F)nc(N3CCOC(C)(C)C3)n2)CCO1
Field: entry with larger Ki (options I / II ). Please identify the chosen entry by its label.
II

* * *

pKi: −log10 of the molar value.
Multiple publications report pKi for Serine/threonine-protein kinase mTOR (Homo sapiens); what follows is a combined list.
MEASURED ATTRIBUTE: pKi

[[record]]
compound_structure = "CCNC(=O)Nc1ccc(-c2nc3c(c(N4C[C@H]5CC[C@@H](C4)O5)n2)CS(=O)(=O)C3)cc1"
obs_value = 8.15

[[record]]
compound_structure = "Nc1cc(C(F)F)c(-c2nc(N3CC4CCC(C3)O4)nc(N3CC4CCC(C3)O4)n2)cn1"
obs_value = 7.86

[[record]]
compound_structure = "COc1ccc(NC(=O)c2c(C)ccc3c(N)nc(C)nc23)cn1"
obs_value = 6.00

[[record]]
compound_structure = "Cc1ccc(NC(=O)c2cccc3c(N)nc(C)nc23)cn1"
obs_value = 7.51

[[record]]
compound_structure = "COc1ccc(-c2cc3c(C)nc(N)nc3n(C(C)C)c2=O)cn1"
obs_value = 8.30

[[record]]
compound_structure = "CC(C)n1cc(C(=O)c2cncc(N[C@@H]3CCO[C@@H]3c3ccc(F)cc3)n2)c2c(N)ncnc21"
obs_value = 5.41


[A] C[C@@H]1CN(c2nc(-c3cnc(N)cc3C(F)F)nc(N3C[C@@H](C)O[C@@H](C)C3)n2)C[C@H](C)O1
[B] CCNC(=O)Nc1ccc(-c2nc3c(c(N4CCOC[C@@H]4C)n2)S(=O)(=O)CCC3)cc1
Field: entry with larger pKi (options A / B ). Please identify the chosen entry by its label.
B
(B: 7.30, A: 6.19)

[I] CC(C)n1cc(C(=O)c2cncc(N[C@@H]3CCC[C@@H]3c3ccc(F)cc3)n2)c2c(N)ncnc21
[II] Nc1cc(C(F)F)c(-c2nc(N3CCOCC3)nc(N3CC4CCC(C3)O4)n2)cn1
When the recorded pKi values are compared, which is smaller: that of I or that of II ? Please identify the chosen entry by its label.
I

* * *

Multiple publications report pKi for Serine/threonine-protein kinase mTOR (Homo sapiens, UniProt P42345); what follows is a combined list.
pKi: −log10 of the molar value.
MEASURED ATTRIBUTE: pKi

Observe how each entry below is paired with its result.
[[record]]
compound_structure = "Cc1nc(N)c2cc(CN(C)C)cc(C(=O)Nc3ccn[nH]3)c2n1"
obs_value = 5.88

[[record]]
compound_structure = "Cc1nc(N)c2ccc(C)c(C(=O)Nc3cnc4[nH]ccc4c3)c2n1"
obs_value = 6.67

[[record]]
compound_structure = "Nc1cc(C(F)(F)F)c(-c2nc(N3CCOCC3)cc(N3CCOCC3)n2)cn1"
obs_value = 6.04

[[record]]
compound_structure = "Nc1cc(C(F)F)c(-c2nc(N3C4CCC3COC4)cc(N3C4CCC3COC4)n2)cn1"
obs_value = 7.22


[A] C[C@@H]1COC[C@H](C)N1c1nc(-c2cnc(N)cc2C(F)F)nc(N2[C@H](C)COC[C@@H]2C)n1
[B] CCNC(=O)Nc1ccc(-c2nc3c(c(N4CCOC[C@H]4C)n2)CS(=O)(=O)CC3)cc1
When the recorded pKi values are compared, which is smaller: that of A or that of B ? Please identify the chosen entry by its label.
B

* * *

pKi: −log10 of the molar value.
Multiple publications report pKi for Serine/threonine-protein kinase mTOR (Homo sapiens); what follows is a combined list.
MEASURED ATTRIBUTE: pKi

[[record]]
compound_structure = "COc1ccc(-c2cc3c(C)nc(N)nc3n(C3CCC3)c2=O)cn1"
assay_system = "Serine/threonine-protein kinase mTOR (Homo sapiens)"
obs_value = 7.12


[a] C[C@@H]1COC[C@@H](C)N1c1nc(-c2cnc(N)cc2C(F)F)nc(N2[C@H](C)COC[C@H]2C)n1
[b] Cc1c(CN2CCN(C(=O)CN)CC2)sc2c(N3CCOCC3)nc(-c3cnc(N)nc3)nc12
Field: entry with larger pKi (options a / b ). Please identify the chosen entry by its label.
b
